target: hNav1.7 (Homo sapiens (Human), UniProt Q15858); test: Tritiated compound binding to membranes from cells expressing hNav1.7 and the β1 subunit, modified protocol (LBA, Ex. 243B); conditions: 300 pM [3H]compound, room temperature, read-out: Nav1.7 LBA (Ex. 243B) IC50
Sequence (Q15858 whole entry, looked up): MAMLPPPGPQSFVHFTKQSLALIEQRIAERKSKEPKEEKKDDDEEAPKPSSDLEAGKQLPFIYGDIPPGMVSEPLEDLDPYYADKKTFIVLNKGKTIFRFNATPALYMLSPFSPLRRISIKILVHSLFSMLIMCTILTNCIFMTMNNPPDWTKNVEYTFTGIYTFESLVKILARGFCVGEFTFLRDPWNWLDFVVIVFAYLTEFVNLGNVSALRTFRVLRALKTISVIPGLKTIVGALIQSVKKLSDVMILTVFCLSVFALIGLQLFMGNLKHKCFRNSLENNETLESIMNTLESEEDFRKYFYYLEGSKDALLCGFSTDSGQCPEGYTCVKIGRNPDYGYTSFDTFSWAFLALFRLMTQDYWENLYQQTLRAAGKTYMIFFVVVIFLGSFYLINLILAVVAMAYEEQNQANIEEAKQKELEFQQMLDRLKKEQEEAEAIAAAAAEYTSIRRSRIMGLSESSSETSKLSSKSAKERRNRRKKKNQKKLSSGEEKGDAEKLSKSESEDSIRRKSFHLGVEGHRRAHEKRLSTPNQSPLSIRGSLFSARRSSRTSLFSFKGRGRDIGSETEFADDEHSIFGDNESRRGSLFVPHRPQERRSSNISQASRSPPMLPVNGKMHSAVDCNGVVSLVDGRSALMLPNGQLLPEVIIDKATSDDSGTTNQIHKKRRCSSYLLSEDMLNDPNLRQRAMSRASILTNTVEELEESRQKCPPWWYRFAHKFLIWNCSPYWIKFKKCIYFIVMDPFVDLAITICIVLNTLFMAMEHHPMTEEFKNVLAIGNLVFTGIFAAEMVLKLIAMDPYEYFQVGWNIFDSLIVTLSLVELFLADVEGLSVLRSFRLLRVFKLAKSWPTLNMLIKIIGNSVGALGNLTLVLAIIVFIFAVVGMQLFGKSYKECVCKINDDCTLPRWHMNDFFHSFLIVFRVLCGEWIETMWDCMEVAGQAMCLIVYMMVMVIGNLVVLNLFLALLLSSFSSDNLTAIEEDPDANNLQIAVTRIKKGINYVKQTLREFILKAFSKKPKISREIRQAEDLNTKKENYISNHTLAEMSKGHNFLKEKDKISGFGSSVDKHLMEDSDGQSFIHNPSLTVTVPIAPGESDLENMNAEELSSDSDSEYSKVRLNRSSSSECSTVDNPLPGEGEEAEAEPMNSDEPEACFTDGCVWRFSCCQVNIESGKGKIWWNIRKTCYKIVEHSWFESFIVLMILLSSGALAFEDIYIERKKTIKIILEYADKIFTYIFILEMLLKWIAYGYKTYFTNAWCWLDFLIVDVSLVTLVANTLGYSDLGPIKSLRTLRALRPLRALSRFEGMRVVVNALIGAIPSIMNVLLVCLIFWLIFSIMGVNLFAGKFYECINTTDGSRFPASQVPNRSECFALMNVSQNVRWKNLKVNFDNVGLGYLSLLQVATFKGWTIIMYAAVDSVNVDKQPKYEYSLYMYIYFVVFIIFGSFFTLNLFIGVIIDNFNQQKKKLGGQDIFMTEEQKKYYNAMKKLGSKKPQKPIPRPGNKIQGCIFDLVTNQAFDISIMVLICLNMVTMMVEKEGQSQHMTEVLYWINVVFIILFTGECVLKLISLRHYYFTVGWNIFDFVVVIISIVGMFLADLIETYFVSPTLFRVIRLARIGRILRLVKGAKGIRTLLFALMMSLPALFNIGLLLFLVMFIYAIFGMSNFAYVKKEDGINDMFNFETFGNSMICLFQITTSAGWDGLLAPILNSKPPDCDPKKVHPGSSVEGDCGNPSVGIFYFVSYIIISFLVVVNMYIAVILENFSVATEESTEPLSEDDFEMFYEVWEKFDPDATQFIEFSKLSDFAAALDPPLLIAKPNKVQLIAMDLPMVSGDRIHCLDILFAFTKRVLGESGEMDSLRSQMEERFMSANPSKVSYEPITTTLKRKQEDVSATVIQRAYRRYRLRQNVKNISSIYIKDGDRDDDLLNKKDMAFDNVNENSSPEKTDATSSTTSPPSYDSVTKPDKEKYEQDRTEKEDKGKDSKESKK
Sequence (Q07699 whole entry partner, looked up): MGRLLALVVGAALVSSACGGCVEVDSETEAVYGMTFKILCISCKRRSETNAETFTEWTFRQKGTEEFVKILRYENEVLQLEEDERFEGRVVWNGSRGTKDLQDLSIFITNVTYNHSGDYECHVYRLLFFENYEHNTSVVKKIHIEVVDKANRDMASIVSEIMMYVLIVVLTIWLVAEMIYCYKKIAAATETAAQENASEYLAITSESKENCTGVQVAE
pIC50: −log10 of the molar value. Counter-ions that a name gives are not always drawn.
experimentalReadout: pIC50

>>> df
                                    compound   val
 0  CN(CC(O)C(F)F)[C@H]1CCCC[C@@H]1Nc1cc(F)c(S(=O)(=O)Nc2nccs2)cc1Cl (single isomer, unassigned) [Example 127]  7.21
 1  CN(C)[C@H]1C[C@H](c2cccc(C(F)(F)F)c2)CC[C@@H]1Nc1cc(F)c(S(=O)(=O)Nc2ccncn2)cc1Cl [Example 218]  7.68
 2  Cc1csc(NS(=O)(=O)c2cc(Cl)c(N[C@H]3CC[C@H](C(F)(F)F)C[C@@H]3N(C)C)cc2F)n1 [Example 171, formate]  6.59
 3  O=S(=O)(Nc1ccncn1)c1cc(Cl)c(N[C@H]2CC[C@H](c3cccc(C(F)(F)F)c3)C[C@@H]2N2CCCC2)cc1F [Example 242]  9.37
 4  O=S(=O)(Nc1cccc(F)n1)c1cc(Cl)c(N[C@@H]2CCCC[C@H]2N2C[C@@H]3[C@@H](CO)[C@@H]3C2)cc1F [Example 184]  5.70
 5  CN(C)[C@@H]1CCCCC[C@H]1Nc1cc(F)c(S(=O)(=O)Nc2nccs2)cc1Cl [Example 145, formate]  5.70
 6  CN(CCO)[C@H]1CCCC[C@@H]1Nc1cc(F)c(S(=O)(=O)Nc2cccc(F)n2)cc1C1CC1 [Example 128, formate]  7.64
 7  CN1CCC[C@@H]1C(=O)N(C)[C@H]1CCCC[C@@H]1Nc1cc(F)c(S(=O)(=O)Nc2nccs2)cc1Cl [Example 204]  6.51
 8  CN(C1CCC1)[C@H]1C[C@@H](C(F)(F)F)CC[C@@H]1Nc1cc(F)c(S(=O)(=O)Nc2ccncn2)cc1Cl [Example 180]  6.18
 9  CN(C)[C@H]1CCC(F)C[C@@H]1Nc1cc(F)c(S(=O)(=O)Nc2nccs2)cc1Cl (stereo partly shown) [Example 191, formate]  6.11
10  O=S(=O)(Nc1ccncn1)c1cc(Cl)c(N[C@H]2CCCC[C@@H]2N2CC3CC3C2)cc1F (stereo partly shown) [Example 151]  6.74
11  CN(CC(O)CF)[C@H]1CCCC[C@@H]1Nc1cc(F)c(S(=O)(=O)Nc2nccs2)cc1Cl (single isomer, unassigned) [Example 118]  6.62
12  CN[C@H]1C[C@@H](c2cccc(C(F)(F)F)c2)CC[C@@H]1Nc1cc(F)c(S(=O)(=O)Nc2ccncn2)cc1Cl [Example 226]  8.84
